# ASSAY_DETAILS: Tissue distribution in Swiss nu/nu SSCUP mice bearing Beu
# Type: in vivo, human
# MEASUREMENT_PARAMETERS: mouse, stomach, iv, 3 umol/animal; 6 h; read-out: stomach % ID/g
REPORTED_ENDPOINT: tissue uptake at 6 h (%ID/g)
Number in %ID/g, nothing else.

Query string: Please look at this compound and report its tissue uptake at 6 h: CCN(CC)CCNC(=O)c1ccc(I)cc1 [Derivative A, N-(2-diethylaminoethyl) 4-iodo benzamide]
Result string: 0.49

----------
# ASSAY_DETAILS: Tissue distribution in Swiss nu/nu SSCUP mice bearing Dau
# Assay type: in vivo, human
# MEASUREMENT_PARAMETERS: mouse, liver, iv, 3 umol/animal, 6 h; read-out: liver % ID/g
REPORTED_ENDPOINT: tissue uptake at 6 h (%ID/g)
Number in %ID/g, nothing else.

Query string: Please look at this compound and report its tissue uptake at 6 h: CCNCCNC(=O)c1ccc(I)cc1 [Derivative B, N-(2-ethylaminoethyl) 4-iodo benzamide]
Result string: 0.74

Query string: Please look at this compound and report its tissue uptake at 6 h: CCN(CC)CCNC(=O)c1ccc(I)cc1 [Derivative A, N-(2-diethylaminoethyl) 4-iodo benzamide]
Result string: 1.1

----------
# ASSAY_DETAILS: Tissue distribution in Swiss nu/nu SSCUP mice bearing Beu
# Assay type: in vivo, human
# MEASUREMENT_PARAMETERS: mouse, liver, iv, 3 umol/animal, 2 h; read-out: liver % ID/g
REPORTED_ENDPOINT: tissue uptake at 2 h (%ID/g)
Number in %ID/g, nothing else.

Query string: Please look at this compound and report its tissue uptake at 2 h: CCN(CC)CCNC(=O)c1ccc(I)cc1 [Derivative A, N-(2-diethylaminoethyl) 4-iodo benzamide]
Result string: 3.5

----------
# ASSAY_DETAILS: LD50 determination, i.v. (Karber and Behrens)
# MEASUREMENT_PARAMETERS: mouse, in vivo, iv
Please respond with reported LD50 for every item in the list.
Number in mg/kg, nothing else.

Query string: Please look at this compound and report its LD50: CCNCCNC(=O)c1ccc(I)cc1 [Derivative B, N-(2-ethylaminoethyl) 4-iodo benzamide]
Result string: 175

Query string: Please look at this compound and report its LD50: CCN(CC)CCNC(=O)c1ccc(I)cc1 [Derivative A, N-(2-diethylaminoethyl) 4-iodo benzamide]
Result string: 125
